- Tested on: COLO 205 colon
- testMethodNotes: NCI tumour cell line growth inhibition, 48 h
Use 5 µM as the dividing line for TGI, with the line itself on the criterion met side and lower values as criterion not met.

molecule: COc1ccc2c(c1OC)OCC(CN(C)C)C2=O (stereo not drawn)
category: criterion met
//
molecule: O=C(CCC(C(=O)c1ccccc1)c1ccccc1)c1ccccc1 (stereo not drawn)
category: criterion met
//
molecule: CC[C@@H]1C[C@H]2CC3c4[nH]c5ccc(O)cc5c4CCN(C2)C31
category: criterion met
//
molecule: COC(=O)/C=C(/OC)[C@H](C)[C@H](/C=C/c1csc(-c2csc(C(C)C)n2)n1)OC
category: criterion met
//
molecule: O=C1c2ccccc2-c2c1c1c(O)cccc1n2-c1ccccc1
category: criterion met
//
molecule: C/C(=N\NC(=S)N(C)CCN(C)C(=S)N/N=C(\C)c1ccccn1)c1ccccn1
category: criterion not met
//
molecule: CN1Cc2cc3c(cc2-c2ccccc21)OCO3
category: criterion met
//
molecule: CCOP(=O)(OCC)C(C(=O)OC)C(=O)C(=O)Nc1c(C)cc(Br)cc1C (stereo not drawn)
category: criterion met
//
molecule: O=C1C(Cl)C(c2cc3cc(Br)ccc3nc2Cl)N1c1ccc(Cl)cc1 (stereo not drawn)
category: criterion met
//
molecule: CCCCCCCC(=O)OCC1OC(OC)C(NC(=O)N(CCCl)N=O)C(O)C1O (stereo not drawn)
category: criterion met
//
molecule: CC1OC(OC2C(CO)OC(O[C@H]3CC[C@@]4(C)C(=CC[C@H]5[C@@H]6C[C@@H]7O[C@]8(CC[C@@H](C)CN8)[C@@H](C)[C@@H]7[C@@]6(C)CC[C@@H]54)C3)C(O)C2O)C(O)C(O)C1O (stereo partly drawn)
category: criterion met
//
molecule: CCOC(=O)C1=CC(C)(C(=O)OCC)Nc2c(nc(OC)[nH]c2=O)N1 (stereo not drawn)
category: criterion met
//
molecule: C[n+]1ccc(-c2c3nc(c(-c4cc[n+](C)cc4)c4ccc([n-]4)c(-c4cc[n+](C)cc4)c4nc(c(-c5cc[n+](C)cc5)c5ccc2[n-]5)C=C4)C=C3)cc1.[I-].[Zn+2]
category: criterion met
//
molecule: O=C(/C(=C/c1ccc([N+](=O)[O-])cc1)SCc1ccc(F)cc1)c1ccc(Cl)cc1
category: criterion met
//
molecule: CC(C)SC(NC(=O)C1C(C)(C)CCC1(C)C)C(=O)O (stereo not drawn)
category: criterion met
//
molecule: COc1ccc2nc3ccccc3c(NCCCN(C)CCCl)c2c1
category: criterion not met
//
molecule: COc1cc(-c2nn(-c3cccc(NC(=O)c4ccc(N5CCOCC5)c(C(F)(F)F)c4)c3)cc2-c2ccncc2)ccc1Cl
category: criterion not met
//
molecule: N#CCC(=O)N/N=C(\C(=O)Nc1ccc(Cl)c(Cl)c1)C1CN(c2ccccc2)N=C1N (stereo not drawn)
category: criterion met
//
molecule: O=S(=O)(c1ccccc1)C1(CCC2OCCO2)C=CC2(CC1)OCCO2 (stereo not drawn)
category: criterion met
//
molecule: CC(=O)O[C@H]1CCC2[C@@H]3CCC4Cc5nc6c(nc5C[C@]4(C)C3CC[C@@]21C)CC1CC[C@@H]2C(CC[C@@]3(C)C2CC[C@@H]3C(C)CCCC(C)C)[C@@]1(C)C6 (stereo partly drawn)
category: criterion met
//
molecule: CC(C)N1CN(C(C(=O)N[C@@H]2C(=O)N3C2SC(C)(C)C3C(=O)O)c2ccc(O)cc2)CSC1=S (stereo partly drawn)
category: criterion met
//
molecule: CCOC(=O)/C(C#N)=C1/C(O)=C(C(=O)OC)C(C(=O)OC)=C1C(=O)OC
category: criterion met
//
molecule: O=C1C2CN(Cc3ccccc3)CC1CN(CC1CC1)C2
category: criterion met
//
molecule: Cn1/c(=N\N=C(\CNCCO)[C@@H](O)[C@@H]2OC(c3ccccc3)OC[C@H]2O)sc2ccccc21 (stereo partly drawn)
category: criterion met
//
molecule: C[C@H]1[C@H]2[C@H]3CC[C@@H]4[C@@]5(C)C/C(=C/c6cccnc6)C(=O)C(C)(C)[C@@H]5CC[C@@]4(C)[C@]3(C)CC[C@]23CO[C@]1(C)[C@@H](C(=O)/C=C\c1cccnc1)C3
category: criterion not met
//
molecule: CCC[CH2][Sn]1([CH2]CCC)[O]C(=O)c2ccc(C)cc2[O]1
category: criterion not met
//
molecule: CC(=O)NNC(=O)C1CCCCN1 (stereo not drawn)
category: criterion met
//
molecule: c1ccc(C[N+]23CN4CN(CN(C4)C2)C3)cc1
category: criterion met
//
molecule: O=c1oc2ccc(-n3c(=O)c4ccccc4c4ccccc4c3=O)cc2c2ccccc12
category: criterion met
//
molecule: CC1=C([Te]c2ccc(O)cc2)C(=O)c2ccccc2C1=O
category: criterion not met
//
molecule: CN1CC(CNC(=O)OCc2ccccc2)CC2c3cccc4c3c(cn4C)CC21 (stereo not drawn)
category: criterion not met
//
molecule: Cl/C(=C\C=Nc1ccc(I)cc1)c1ccc2ccccc2c1
category: criterion met
//
molecule: Cc1nc2ccccc2c(=O)n1NC(=S)Nc1ccc(Cl)cc1[N+](=O)[O-]
category: criterion met
//
molecule: COc1ccc(-c2nc(N3CCN(C(=O)C4CCCCC4)CC3)c3c4c(sc3n2)CCCC4)cc1
category: criterion met
//
molecule: COc1ccc(/C(CC2OC(=O)c3ccccc32)=N\NC(=O)C[N+](C)(C)C)cc1 (stereo not drawn)
category: criterion met
//
molecule: NC1=NCCN1CC(=O)O
category: criterion met
//
molecule: O=C(Nc1nc2ccc(F)cc2s1)c1cccnc1Nc1ccc(Cl)cc1
category: criterion not met
//
molecule: O=c1[nH]c(=O)n(C2CC(O)C(CO)O2)cc1OCC1CCCCC1 (stereo not drawn)
category: criterion met

This collection of values is drawn from PubChem BioAssay (NCI).
